assay: Percent killing of the total Escherichia coli K12 (ATCC 25868) cells at the C50 concentration was determined.; format: ADME
Could you mark each record MET if its Kill at C50 falls strictly under 80%, and NOT MET if it equals or exceeds it?

Completed entries (count: 2):
-- ask Lab note: confirm whether the reported Kill at C50 for this compound is below 80%, equality not counting. compound: CNC1C(OC2OC(CO)C(N)C(O)C2O)OC2CC(N)C(OC3C(N)CC(NC(=O)C(O)CCN)C(O)C3O)OC2C1O (stereo not given)
-- reply MET

-- ask Lab note: confirm whether the reported Kill at C50 for this compound is below 80%, equality not counting. compound: CN[C@@H]1[C@@H](O)[C@@H](O[C@@H]2[C@@H](O)[C@H](O[C@H]3OC(CN)=CC[C@H]3N)[C@@H](N)C[C@H]2N)OC[C@]1(C)O
-- reply MET

More entries:
-- ask Lab note: confirm whether the reported Kill at C50 for this compound is below 80%, equality not counting. compound: CN[C@@H]1[C@@H](O)[C@@H](O[C@@H]2[C@@H](O)[C@H](O[C@H]3O[C@H]([C@@H](C)NC)CC[C@H]3N)[C@@H](N)C[C@H]2N)OC[C@]1(C)O
-- reply NOT MET

-- ask Lab note: confirm whether the reported Kill at C50 for this compound is below 80%, equality not counting. compound: NC[C@H]1O[C@H](O[C@H]2[C@H](O[C@@H]3O[C@H](CO)[C@@H](O)[C@H]3O)[C@@H](O)[C@H](N)C[C@@H]2N)[C@H](N)[C@@H](O)[C@@H]1O
-- reply NOT MET

###

Lab note: C50 readings collected with Escherichia coli for the following compounds.

Entry CN[C@@H]1[C@H](O[C@H]2[C@H](O[C@H]3[C@H](O)[C@@H](O)[C@H](N=C(N)N)[C@@H](O)[C@@H]3N=C(N)N)O[C@@H](C)[C@]2(O)C=O)O[C@@H](CO)[C@H](O)[C@H]1O [STREPTOMYCIN] , C50 reported as 0.34 µM

Entry NC[C@@H]1O[C@H](O[C@H]2[C@@H](O)[C@H](O[C@@H]3[C@@H](O)[C@H](N)C[C@H](N)[C@H]3O[C@H]3O[C@H](CN)[C@@H](O)[C@H](O)[C@H]3N)O[C@@H]2CO)[C@H](N)[C@@H](O)[C@@H]1O [FRAMYCETIN] , C50 reported as 0.34 µM

###

test: Lethal dose required to kill 90% of the Escherichia coli K12 (ATCC 25868) cell population; format: ADME
reported metric: LD90 (µM)
Numbers only here, please. The scale is µM.

Solved entries:
Entry NC[C@H]1O[C@H](O[C@H]2[C@H](O[C@@H]3O[C@H](CO)[C@@H](O)[C@H]3O)[C@@H](O)[C@H](N)C[C@@H]2N)[C@H](N)[C@@H](O)[C@@H]1O [RIBOSTAMYCIN] , LD90 reported as 0.17

Entry COC1C(O)C(N)C(OC2OC([C@H](C)N)CCC2N)C(O)C1N(C)C(=O)CN (some centres not stated) , LD90 reported as 0.7

Entry NC[C@@H]1O[C@H](O[C@H]2[C@@H](O)[C@H](O[C@@H]3[C@@H](O)[C@H](N)C[C@H](N)[C@H]3O[C@H]3O[C@H](CO)[C@@H](O)C[C@H]3N)O[C@@H]2CO)[C@H](N)[C@@H](O)[C@@H]1O[C@H]1O[C@H](CO)[C@@H](O)[C@H](O)[C@@H]1O [LIVIDOMYCIN] , LD90 reported as 0.87

Entry CNC1C(OC2OC(CO)C(N)C(O)C2O)OC2CC(N)C(OC3C(N)CC(NC(=O)CN)C(O)C3O)OC2C1O (configuration not stated) , LD90 reported as 0.84

Entry CNC1C(OC2OC(CO)C(N)C(O)C2O)OC2CC(NC(=O)CN)C(OC3C(N)CC(N)C(O)C3O)OC2C1O (configuration not stated) , LD90 reported as 0.83

Entry CN[C@@H]1[C@@H](O)[C@@H](O[C@@H]2[C@@H](O)[C@H](O[C@H]3OC(CN)=CC[C@H]3N)[C@@H](N)C[C@H]2N)OC[C@]1(C)O [SISOMICIN] , LD90 reported as 0.49

Entry NCC1CCC(N)C(OC2C(N)CC(N)C(OC3OC(CO)C(O)C(N)C3O)C2O)O1 (configuration not stated) , LD90 reported as 0.89

Entry CCN[C@@H]1C[C@H](N)[C@@H](O[C@H]2OC(CN)=CC[C@H]2N)[C@H](O)[C@H]1O[C@H]1OC[C@](C)(O)[C@H](NC)[C@H]1O [NETILMICIN] , LD90 reported as 0.38

More entries:
Entry CNC1C(OC2OC(CO)C(N)C(O)C2O)OC2CC(NC(=O)C(O)CCN)C(OC3C(N)CC(N)C(O)C3O)OC2C1O (configuration not stated) , LD90 reported as 0.72

Entry NC[C@H]1O[C@H](O[C@H]2[C@H](O)[C@@H](O[C@H]3O[C@H](CO)[C@@H](O)[C@H](N)[C@H]3O)[C@H](N)C[C@@H]2N)[C@H](N)[C@@H](O)[C@@H]1O [BEKANAMYCIN] , LD90 reported as 1.1

Entry CN[C@@H]1[C@@H](O[C@H]2O[C@H](CO)[C@@H](N)[C@H](O)[C@H]2O)OC2C[C@@H](N)[C@@H](O[C@H]3[C@H](O)[C@@H](O)[C@H](N)C[C@@H]3N)OC2[C@@H]1O (some centres not stated) [APRAMYCIN] , LD90 reported as 0.67

Entry NC[C@H]1O[C@H](O[C@H]2[C@H](O)[C@@H](O[C@H]3O[C@H](CO)[C@@H](O)[C@H](N)[C@H]3O)[C@H](N)C[C@@H]2N)[C@H](N)C[C@@H]1O [TOBRAMYCIN] , LD90 reported as 0.71
